# Tested on: TNFα
# PROTOCOL SUMMARY: Cot Monocyte TNFα Cell Based Assay
# APPLIED CONDITIONS: Homo sapiens, Monocyte, read-out: EC50 TNF, LPS-stimulated human monocytes, TNFα
READOUT TYPE: EC50 (nM)

molecule="CC(C)(C)CNc1c(C#N)cnc2c(Cl)cc(N[C@@H](c3cccnc3)c3cn(C4COC4)nn3)cc12 [Example 168]" readout_type=EC50 test_value=394
molecule="C[C@@H](Nc1c(C#N)cnc2c(Cl)cc(N[C@H](c3c[nH]nn3)c3csc4c3CCN(C3COC3)C4)cc12)c1ccccc1 [Example 238]" readout_type=EC50 test_value=901
molecule="CC(C)(C)CNc1c(C#N)cnc2c(Cl)cc(N[C@H](c3cn(C4CC4)nn3)c3cccc4ncsc34)cc12 [Example 418]" readout_type=EC50 test_value=45
molecule="N#Cc1cnc2c(Cl)cc(N[C@@H](C3=CCOCC3)c3c[nH]nn3)cc2c1Nc1ccc(Cl)c(Cl)c1F [Example 211]" readout_type=EC50 test_value=544

----------
# Tested on: TNFα
# PROTOCOL SUMMARY: Cot Monocyte TNFα Cell Based Assay
# APPLIED CONDITIONS: Homo sapiens, Monocyte, read-out: EC50 TNF, LPS-stimulated human monocytes, TNFα
Binarize EC50 at 200 nM; below is class 1, at or above is class 0.

compound=[2H]C([2H])(Nc1c(C#N)cnc2c(Cl)cc(N[C@H](c3cn(C4(C(F)F)CC4)nn3)c3ccc(F)nc3C)cc12)C(C)(C)C class_assignment="class 1"
compound=CC(C)(C)CNc1c(C#N)cnc2c(Cl)cc(N[C@H](c3cn(C4(C(F)F)CC4)nn3)c3cccn4nccc34)cc12 class_assignment="class 1"
compound=Cc1ncccc1[C@H](Nc1cc(Cl)c2ncc(C#N)c(Nc3cnc(F)c(F)c3)c2c1)c1cn(C2CC2)nn1 class_assignment="class 1"
compound=N#Cc1cnc2c(Cl)cc(N[C@@H](C3=CCOCC3)c3cn(C4COC4)nn3)cc2c1Nc1ccc(Cl)c(Cl)c1F class_assignment="class 0"
compound=Cc1ncoc1[C@H](Nc1cc(Cl)c2ncc(C#N)c(Nc3ccc(F)c(Cl)c3)c2c1)c1cn(C2CCN(C(C)(C)C)CC2)nn1 class_assignment="class 0"
compound=COCCOCCn1cc([C@@H](Nc2cc(Cl)c3ncc(C#N)c(Nc4ccc(F)c(Cl)c4)c3c2)c2cccnc2)nn1 class_assignment="class 0"
compound=C[C@@H](CF)n1cc([C@@H](Nc2cc(Cl)c3ncc(C#N)c(NCC(C)(C)C)c3c2)c2cccc3c(=O)n(C)ccc23)nn1 class_assignment="class 1"
compound=Cn1cnc2c([C@H](Nc3cc(Cl)c4ncc(C#N)c(NCC(C)(C)C)c4c3)c3cn(C4(C(F)(F)F)CC4)nn3)cccc21 class_assignment="class 0"
compound=Cc1nc(F)ccc1[C@H](Nc1cc(Cl)c2ncc(C#N)c(NCC(C)(C)C(F)(F)F)c2c1)c1cn(C2(C)CC2)nn1 class_assignment="class 1"
compound=CC(C)(C)CNc1c(C#N)cnc2c(Cl)cc(N[C@H](c3cn(C4(C#N)CC4)nn3)c3cccc4ncsc34)cc12 class_assignment="class 1"
compound=[2H]C([2H])(Nc1c(C#N)cnc2c(Cl)cc(N[C@@]([2H])(c3ccc(N(C)C)nc3)c3cn(C4CC4)nn3)cc12)C(C)(C)C class_assignment="class 0"
compound=N#Cc1cnc2c(Cl)cc(N[C@@H](c3cncc(Cl)c3)c3c[nH]nn3)cc2c1Nc1cnc(F)c(F)c1 class_assignment="class 0"
compound=CC(C)(C)CNc1c(C#N)cnc2c(Cl)cc(N[C@H](c3cn(C(C)(C)C(F)F)nn3)c3cccc4ncccc34)cc12 class_assignment="class 1"
compound="[2H]C(Nc1cc(Cl)c2ncc(C#N)c(N[C@H](CC)c3ccccc3)c2c1)(c1cn(C2CC2)nn1)c1cc(F)cnc1C (some centres unmarked)" class_assignment="class 0"
compound=CCc1ncccc1[C@H](Nc1cc(C#N)c2ncc(C#N)c(NCC(C)(C)C)c2c1)c1cn(C2(C(F)F)CC2)nn1 class_assignment="class 1"
compound=CC(C)(C)CNc1c(C#N)cnc2c(C#N)cc(N[C@H](c3cn(C4(C(F)(F)F)CC4)nn3)c3cccc4c3CNC4)cc12 class_assignment="class 1"
compound=Cn1cnc2cccc([C@H](Nc3cc(Cl)c4ncc(C#N)c(NCC(C)(C)C)c4c3)c3cn(C4CC4)nn3)c21 class_assignment="class 1"
compound=CC(C)(C)CNc1c(C#N)cnc2c(C#N)cc(N[C@H](c3cn(C4(C)CC4)nn3)c3cccc4ncsc34)cc12 class_assignment="class 1"
compound=Cc1nc(C)c([C@H](Nc2cc(Cl)c3ncc(C#N)c(Nc4ccc(F)c(Cl)c4)c3c2)c2cn(C3CCN(C(C)(C)C)CC3)nn2)s1 class_assignment="class 0"
compound=Cn1c(=O)ccc2c([C@H](Nc3cc(Cl)c4ncc(C#N)c(NCC(C)(C)C)c4c3)c3cn(C4(C(F)(F)F)CC4)nn3)cccc21 class_assignment="class 1"
compound=CC[C@@H](Nc1c(C#N)cnc2c(Cl)cc(N[C@H](c3cn(C4CCN(C(C)(C)C)CC4)nn3)c3cccnc3C)cc12)c1ccccc1 class_assignment="class 1"
compound=CC(C)(C)CNc1c(C#N)cnc2c(C#N)cc(N[C@H](c3cn(C4(C)CC4)nn3)c3cccc4cnccc34)cc12 class_assignment="class 1"
compound=Cc1nc(F)ccc1[C@H](Nc1cc(C#N)c2ncc(C#N)c(NCC(C)(C)c3ccccc3)c2c1)c1cn(C2(C(F)(F)F)CC2)nn1 class_assignment="class 1"
compound=CC(C)(C)CNc1c(C#N)cnc2c(C#N)cc(N[C@@H](c3cn(C4CC4)nn3)c3cccc4ncsc34)cc12 class_assignment="class 0"
compound=CC(C)(C)CNc1c(C#N)cnc2c(Cl)cc(N[C@H](c3cn(C4(C(N)=O)CC4)nn3)c3cccc4cnccc34)cc12 class_assignment="class 0"
compound=CC(C)(C)CNc1c(C#N)cnc2c(Cl)cc(N[C@H](c3cn(C4CC4)nn3)c3ccc(F)nc3Cl)cc12 class_assignment="class 0"

----------
Some compounds, each annotated with its measured pIC50.
# ASSAY SYSTEM: Human Cot (Homo sapiens (Human))
# Sequence (P41279 30-397): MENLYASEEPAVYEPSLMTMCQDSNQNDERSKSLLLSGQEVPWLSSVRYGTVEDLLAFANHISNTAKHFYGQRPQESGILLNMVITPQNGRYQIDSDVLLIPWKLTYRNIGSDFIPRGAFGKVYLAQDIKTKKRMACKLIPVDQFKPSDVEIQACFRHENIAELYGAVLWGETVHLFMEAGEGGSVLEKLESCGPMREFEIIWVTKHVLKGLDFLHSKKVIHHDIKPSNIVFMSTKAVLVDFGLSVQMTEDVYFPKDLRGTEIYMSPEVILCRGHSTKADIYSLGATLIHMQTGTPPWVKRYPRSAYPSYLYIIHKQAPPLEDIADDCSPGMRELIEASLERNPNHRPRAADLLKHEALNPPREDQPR
# PROTOCOL SUMMARY: High Throughput Cot Biochemical Assay
# APPLIED CONDITIONS: IC50 HTRF, Cot HTRF (TR-FRET) biochemical assay
pIC50: −log10 of the molar value.
READOUT TYPE: pIC50

compound="[2H]C([2H])([2H])n1ccc2c([C@H](Nc3cc(Cl)c4ncc(C#N)c(NCC(C)(C)C)c4c3)c3cn(C45CC(C4)C5)nn3)cccc2c1=O [Example 711]" test_value=8.70
compound="CC[C@@H](Nc1c(C#N)cnc2c(Cl)cc(N[C@@H](c3cccnc3)c3cn(C4CC4)nn3)cc12)c1ccccc1 [Example 191]" test_value=8.70
compound="CC(C)(C)N1CCC(n2cc([C@@H](Nc3cc(Cl)c4ncc(C#N)c(Nc5ccc(F)c(Cl)c5)c4c3)c3ccc4c(c3)CNC4)nn2)CC1 [Example 57]" test_value=7.22
compound="CC(C)(C)OC(=O)N1CCC(n2cc([C@@H](Nc3cc(Cl)c4ncc(C#N)c(Nc5ccc(F)c(Cl)c5)c4c3)c3cncs3)nn2)CC1 [Example 384]" test_value=6.82
compound="Cc1nc(F)ccc1[C@H](Nc1cc(C#N)c2ncc(C#N)c(NCC(C)(C)C)c2c1)c1cn(C(C)(C)CF)nn1 [Example 625]" test_value=8.70
compound="Cc1nc(F)ccc1[C@H](Nc1cc(C#N)c2ncc(C#N)c(NCC(C)(C)C)c2c1)c1cn(C2(C)CC2)nn1 [Example 492]" test_value=8.70

----------
# System: TNFα
# PROTOCOL SUMMARY: Cot Monocyte TNFα Cell Based Assay
# APPLIED CONDITIONS: Homo sapiens, Monocyte, read-out: EC50 TNF, LPS-stimulated human monocytes, TNFα TR-FRET
Some compounds, each annotated with its measured log10 of EC50.
READOUT TYPE: log10 of EC50 (log10 of the value in nM)

compound="CC(C)(C)CNc1c(C#N)cnc2c(C#N)cc(N[C@H](c3cn(C45CC(C4)C5)nn3)c3ccc(F)c4ncccc34)cc12 [Example 814]" test_value=1.20
compound="Cc1nc(F)ccc1[C@H](Nc1cc(Cl)c2ncc(C#N)c(NCC(C)(C)C)c2c1)c1nnn(C2CC2)c1C1CC1 [Example 946]" test_value=2.18
compound="Cc1nc(F)ccc1[C@H](Nc1cc(C#N)c2ncc(C#N)c(NCC(C)(C)C(F)(F)F)c2c1)c1nnn(C2(C)CC2)c1F [Example 863]" test_value=1.54
compound="COc1ccc(C(Nc2cc(Cl)c3ncc(C#N)c(NCC(C)(C)C)c3c2)c2cn(C3(C(F)(F)F)CC3)nn2)c(C)n1 (stereo not shown) [Example 978]" test_value=2.48
compound="Cc1nc(F)ccc1[C@H](Nc1cc(C#N)c2ncc(C#N)c(NCC(C)(C)C(F)(F)F)c2c1)c1cn(C(C)(C)C)nn1 [Example 827]" test_value=1.58
compound="Cc1nc(F)ccc1[C@H](Nc1cc(Cl)c2ncc(C#N)c(NCC(C)(C)C)c2c1)c1nnn(C2(C(F)F)CC2)c1F [Example 960]" test_value=1.74
compound="CC(C)(C)CNc1c(C#N)cnc2c(C#N)cc(N[C@H](c3cn(C4(C(F)(F)F)CC4)nn3)c3ccc(C#N)c4ncccc34)cc12 [Example 910]" test_value=2.17
compound="Cn1ccc2c([C@H](Nc3cc(C#N)c4ncc(C#N)c(NCC(C)(C)C)c4c3)c3cn(C4(CF)CC4)nn3)cccc2c1=O [Example 878]" test_value=1.49
compound="CCC(F)(F)Cn1cc([C@@H](Nc2cc(C#N)c3ncc(C#N)c(NCC(C)(C)C)c3c2)c2ccc(F)nc2C)nn1 [Example 837]" test_value=2.08
compound="Cn1ccc2c([C@H](Nc3cc(C#N)c4ncc(C#N)c(NCC(C)(C)C)c4c3)c3cn(C4(C)COC4)nn3)cccc2c1=O [Example 853]" test_value=1.99
compound="Cc1nc(F)ccc1[C@H](Nc1cc(Cl)c2ncc(C#N)c(NCC(C)(C)C)c2c1)c1nnn([C@@H](C)CF)c1F [Example 952]" test_value=1.56
compound="Cc1nc(F)ccc1[C@H](Nc1cc(C#N)c2ncc(C#N)c(NCC3C(C)(C)C3(C)C)c2c1)c1cn(C2(C(F)F)CC2)nn1 [Example 845]" test_value=3.00
compound="COc1c(C(Nc2cc(Cl)c3ncc(C#N)c(NCC(C)(C)C)c3c2)c2ccc(F)nc2C)nnn1C (stereo not shown) [Example 971]" test_value=2.48
